Consider the following compounds and their measured pest or weed control at 70 g/ha readings.
test system: VIOSS: wild pansy (Viola tricolor), field violet (Viola arvensis); experiment: Post-emergent Test III, herbicidal activity in wheat and barley; type: in vivo; conditions: Viola tricolor, post-emergence, 504 h; 70 g ai/ha; 21 days after application; read-out: Visual Gorowth Reduction (%) 21 days After Application VIOSS

Some solved cases for reference:
smiles-structure	result
COC(=O)c1nc(-c2ccc(Br)cc2F)c(F)c(N)c1Cl	95 to 100%
Nc1c(F)c(-c2cc(F)c(I)cc2F)nc(C(=O)O)c1Cl	95 to 100%
Nc1c(F)c(-c2ccc(I)c(F)c2)nc(C(=O)O)c1Cl	95 to 100%

Shift focus to the following entry.
# query: pest or weed control at 70 g/ha of entry "Nc1cc(-c2ccc(I)c(F)c2F)nc(C(=O)O)c1Cl"
95 to 100%

---

Entries annotated with measured pest or weed control at 70 g/ha
system: Key Grass and Sedge Weeds as well as Grass Crops; assay: Post-emergent Test II herbicidal activity (Table 6); assay type: in vivo; conditions: post-emergence, 336 h, TRZSS (wheat, Triticum aestivum), crop, 70 g ai/ha, read-out: Visual Growth Reduction (%) 14 Days After Application, TRZSS

For orientation, consider the following solved cases.
smiles-structure	result
COC(=O)c1nc(-c2ccc(I)cc2F)c(F)c(N)c1Cl	0 to 29%
C#Cc1ccc(-c2nc(N)c(OC)c(C(=O)O)n2)c(F)c1	0 to 29%

Next, consider the following molecule.
What value of measured pest or weed control at 70 g/ha is listed for "COC(=O)c1nc(-c2ccc(C(F)(F)F)c(F)c2F)nc(N)c1OC" ?
30 to 44%

---

Measured melting point accompanies every entry in the list below.

smiles-structure	melting point
C=Cc1c(C(=O)O)nc(-c2ccc(C(F)(F)F)c(F)c2)c(F)c1N	120 to 122 °C
Nc1c(Cl)c(C(=O)O)nc(-c2ccc(Br)cc2)c1Cl	164.9 to 166.1 °C
COC(=O)c1nc(-c2ccc(C)c(F)c2)c(F)c(N)c1Cl	127 °C

For the compound "COC(=O)c1nc(-c2cc(F)c(C(F)F)cc2F)cc(N)c1Cl" , what melting point is on record?
141.8 to 145 °C

Which melting point value belongs to "C#Cc1ccc(-c2nc(C(=O)OC)c(Cl)c(N)c2F)c(F)c1F" ?
190 to 192 °C

Recorded melting point for "COC(=O)c1nc(-c2ccc(F)cc2)c(F)c(N)c1Cl" , please?
131 °C

Return reported melting point; argument: "C=Cc1c(N)nc(-c2ccc(I)cc2)nc1C(=O)O"
187 to 190 °C

May I ask what melting point has been recorded for "C=Cc1c(N)nc(-c2ccc(F)c(F)c2F)nc1C(=O)OC" ?
156 to 158 °C

Sample "Nc1c(F)c(-c2ccc(Cl)c(F)c2)nc(C(=O)O)c1Cl" — what was its melting point?
159 to 161 °C

Quick one: melting point of "COC(=O)c1nc(-c2ccc(I)c(F)c2)c(C)c(N)c1Cl" ?
121 to 124 °C

// lookup melting point for "C#Cc1ccc(-c2nc(N)c(OC)c(C(=O)OC)n2)cc1"
148.2 to 150.9 °C

Return reported melting point; argument: "COc1c(N)nc(-c2ccc(C(F)(F)F)c(F)c2F)nc1C(=O)O"
169 to 170 °C

Look up melting point: "COC(=O)c1nc(-c2cc(F)c(C#N)cc2F)cc(N)c1Cl"
209.7 to 211.9 °C

Give its melting point value. Item: "COC(=O)c1nc(-c2cc(F)c(C(F)F)cc2F)nc(N)c1OC"
127.9 to 129.2 °C

Look up melting point for this compound: "C=Cc1c(C(=O)OC)nc(-c2ccc(C(F)(F)F)c(F)c2)c(F)c1N"
77 to 78 °C

Sample "COC(=O)c1nc(-c2ccc(C(N)=O)cc2)c(F)c(N)c1Cl" — what was its melting point?
192 to 195 °C

Record request: melting point value, item "C#Cc1ccc(-c2cc(N)c(Cl)c(C(=O)OC)n2)cc1"
158.9 to 161.2 °C

Look up melting point: "COC(=O)c1nc(-c2ccc(C(F)(F)F)c(F)c2)cc(N)c1Cl"
145 to 146 °C

Origin of the recorded values: patent US9113629B2
